Attribution: patent US20240368161A1

- Protocol: Oral pharmacokinetic determination in mice
- Type: in vivo, C57 mice
- Condition Set: mouse; male C57 mice, oral, dose 5 mg/kg, plasma
Reported Property: AUC(0-t)

Could you share which AUC(0-t) value was measured for O=C(Nc1nc2cccc(-c3ccc(CN4CCS(=O)(=O)CC4)cc3)n2n1)C1CC1 [Filgotinib, reference compound] ?
2120 ng·h/mL
